Data origin: patent US20250361230A1

MEASUREMENT TARGET: AKT Kinase-NanoLuc fusion in HEK-293 cells (Homo sapiens, UniProt P31749)
Construct: host or cells: HEK-293
Sequence (P31749 whole entry, the tested form may be a part): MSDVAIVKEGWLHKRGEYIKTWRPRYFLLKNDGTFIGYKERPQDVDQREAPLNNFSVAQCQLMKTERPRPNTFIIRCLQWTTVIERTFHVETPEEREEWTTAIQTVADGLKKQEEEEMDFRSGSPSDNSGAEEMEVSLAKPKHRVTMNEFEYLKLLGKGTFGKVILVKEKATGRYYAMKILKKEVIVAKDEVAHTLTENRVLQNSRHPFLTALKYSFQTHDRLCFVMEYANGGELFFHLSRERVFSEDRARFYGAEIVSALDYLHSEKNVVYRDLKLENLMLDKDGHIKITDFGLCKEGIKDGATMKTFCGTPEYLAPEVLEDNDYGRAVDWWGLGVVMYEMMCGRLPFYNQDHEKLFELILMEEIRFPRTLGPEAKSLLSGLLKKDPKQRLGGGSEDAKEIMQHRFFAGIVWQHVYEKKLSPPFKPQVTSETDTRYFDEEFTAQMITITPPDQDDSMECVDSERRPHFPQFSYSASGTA
RUN DESCRIPTION: NanoBRET target engagement assay in transfected HEK-293 cells, AKT
Type: cell-based
PROTOCOL CONDITIONS: cellular; read-out: AKT (Cellular) IC50
pIC50: −log10 of the molar value.
MEASURE: pIC50

I. Cc1cc(-c2ccnc3[nH]cc(C#N)c23)ccc1[C@@]1(O)[C@H](C)CN(C2CCS(=O)(=O)CC2)C[C@@H]1C [Compound 2003]
II. Cc1cc(-c2ccnc3[nH]cc(C#N)c23)cc(F)c1[C@@]1(O)[C@H](C)CN(C(=O)CN)C[C@@H]1C [Compound 2004]
Lab note: record which item had the higher pIC50, I or II . Kindly state the label of the option you pick. I
(I: 4.55, II: 4.29)

---

MEASUREMENT TARGET: AKT Kinase-NanoLuc fusion in HEK-293 cells (Homo sapiens, UniProt P31749)
Construct: host or cells: HEK-293
RUN DESCRIPTION: NanoBRET target engagement assay in transfected HEK-293 cells, AKT
Format: cell-based
PROTOCOL CONDITIONS: Table 28, NanoBRET, HEK-293 cells; read-out: AKT1 (Cellular) IC50
pIC50: −log10 of the molar value.
In this section, each of the compounds is paired with its reported pIC50.

Worked examples follow.
- CC1CC(c2ccc(-c3ccnc4[nH]ccc34)cc2)CC(C)N1 (stereo not shown) [Compound 187]: < 4.30
- Cc1cc(-c2ccnc3[nH]cc(F)c23)ncc1[C@@]1(O)[C@H](C)CN(C2CCS(=O)(=O)CC2)C[C@@H]1C [Compound 51]: < 4.52
- C[C@@H]1CN(C2COC2)C[C@H](C)[C@@]1(O)c1c(F)cc(-c2ccnc3[nH]cc(F)c23)cc1F [Compound 45]: < 4.52
- NCc1ccc(-c2ccnc3[nH]ccc23)cc1 [Compound 287]: < 4.30
- Cc1cc(-c2ccnc3[nH]ccc23)ccc1CN [Compound 266]: < 4.30

Please report the recorded pIC50 for NCc1ccc(-c2ccnc3[nH]cc(-c4ccccc4)c23)cc1-c1ccccc1 [Compound 219] . < 4.30

So what does the record say about pIC50 for Cc1cc(-c2ccnc3[nH]cc(F)c23)cc(F)c1C1(O)CC2(CN(C3COC3)C2)C1 [Compound 139] ? < 4.52

---

MEASUREMENT TARGET: AKT (Homo sapiens, UniProt P31749)
Sequence (P31749 whole entry): as the sequence (P31749 whole entry, the tested form may be a part) above
RUN DESCRIPTION: RBC HotSpot kinase assay (33P-ATP, P81 filter-binding), AKT
Format: biochemical
PROTOCOL CONDITIONS: Table 28, biochemical kinase assay; read-out: AKT IC50
pIC50: −log10 of the molar value.
MEASURE: pIC50

- Cc1cc(-c2ccnc3[nH]cc(F)c23)cc(F)c1[C@@]1(O)[C@H](C)CN(C2CCNCC2)C[C@@H]1C: 6.75
- OC1(c2ccc(-c3ccnc4[nH]cc(Br)c34)cc2)C[C@H]2CC[C@@H](C1)N2 (stereo partly drawn): 7.85
- C=C(C)c1c[nH]c2nccc(-c3ccc(CN)cc3)c12: 6.09
- C[C@@H]1CN(C(=O)[C@@H]2CCCN2)C[C@H](C)C1(O)c1c(F)cc(-c2ccnc3[nH]cc(F)c23)cc1F (stereo partly drawn): 5.83

I. C[C@@H]1CN(C(=O)C2(N)CC(F)(F)C2)C[C@H](C)C1(O)c1c(F)cc(-c2ccnc3[nH]cc(F)c23)cc1F (stereo partly drawn)
II. COC(=O)c1c[nH]c2nccc(-c3ccc(C4(O)CCNCC4)cc3)c12
III. c1cc(-c2ccc(C3CCCN3)cc2)c2cc[nH]c2n1 (stereo not drawn)
Task field, ranking: reported pIC50, descending order. # format: label list in the order the request specifies III, II, I

I. COC(=O)c1c[nH]c2nccc(-c3ccc(CN)c(C)c3)c12
II. Cc1cc(-c2ccnc3[nH]cc(F)c23)ccc1[C@@]1(O)[C@H](C)CN(C2COC2)C[C@@H]1C
Which has the higher pIC50, I or II ? Could you answer with the label of the item you picked? II
